This listing pairs molecules with measured growth inhibition.
Assay Overview: NCI Yeast Anticancer Drug Screen. Data for the bub3 strain (AID 167)
Experimental Parameters: S. cerevisiae bub3 mutant strain, at 5.0 µM (retest, dose inferred, filed as 0.5), active compounds read high
About 79,000 compounds went through this panel and 15% of them were active in at least one assay; those are over-represented in the sample as a whole.

{"columns": ["Molecule", "Measurement Units", "growth inhibition"],
 "data": [
  ["CCOP(=O)(CP(=O)(OCC)OCC)OCC.[Cl][Sn]([Cl])([c]1ccccc1)[c]1ccccc1", "%", 19],
  ["C[CH2][Sn]([CH2]C)([O]S(C)(=O)=O)[O]S(C)(=O)=O", "%", 36],
  ["Ic1cccc2c1[se]c1ccccc12", "%", -3],
  ["COC1C(O)C(C)OC(OC2C(Oc3cccc4c(O)c5c(=O)oc6ccc(C)c7c(=O)oc(c34)c5c67)OC(C)C(O)C2O)C1O (configuration not stated)", "%", 23],
  ["CN(Cc1ccccc1)CC(O)c1ccc(Cl)cc1 (configuration not stated)", "%", 2],
  ["CC(=O)Oc1ccc(N=C2C=C(Cl)C(=O)C(Cl)=C2)cc1", "%", 9],
  ["CCCCCCCCCCCCN=C(N)N", "%", 96],
  ["C1CC[N-]CC1.[Cl][Au]([Cl])[Cl]", "%", 25],
  ["O=[N+]([O-])C(Br)CO (configuration not stated)", "%", 7],
  ["CNC(=O)ON(C(C)=O)C(=O)NC", "%", 31],
  ["O=C(CBr)Nc1ccccc1Cl", "%", 23],
  ["CN(C)CCN(C)P12(Oc3ccccc3O1)Oc1c(Cl)c(Cl)c(Cl)c(Cl)c1O2", "%", -10]
]}
